TARGET_ENTITY: human glucagon receptor (human, UniProt P47871 26-477)
Sequence (P47871 26-477): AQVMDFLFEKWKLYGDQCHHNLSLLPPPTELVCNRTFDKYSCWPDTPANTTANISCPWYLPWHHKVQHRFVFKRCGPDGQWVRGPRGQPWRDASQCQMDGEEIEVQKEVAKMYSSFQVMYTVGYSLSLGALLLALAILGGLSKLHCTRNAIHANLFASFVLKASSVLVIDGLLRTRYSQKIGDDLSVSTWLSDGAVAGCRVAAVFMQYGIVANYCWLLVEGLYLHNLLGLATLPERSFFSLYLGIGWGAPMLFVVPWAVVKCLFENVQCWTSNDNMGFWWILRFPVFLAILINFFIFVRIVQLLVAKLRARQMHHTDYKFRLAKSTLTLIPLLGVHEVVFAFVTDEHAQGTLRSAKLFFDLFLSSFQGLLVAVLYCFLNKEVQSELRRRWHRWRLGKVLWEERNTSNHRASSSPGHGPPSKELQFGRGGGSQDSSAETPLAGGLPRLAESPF
MEASUREMENT_PROTOCOL: cell-based or functional assay
Where no end group is shown, it is not given here. [ ]: non-standard residue; d: D form. Aib = CC(C)(N)C(=O)O
Catalogue of hGcgR CRE Luc EC50 (pM) readings, one per entry.
Answer with a number only, understood to be in pM.

| BINDER | EXPERIMENTAL_VALUE |
| --- | --- |
| Y[Aib]QGTFTSDYSIYLEKQAAQEFVQWLLEGGPSSGAPPPS-NH2 (not fully specified (residue 16); printed as Y-Aib-QGTFTSDYSIYLE-K[2-[2-[2-[[2-[2-[2-[[(4S)-4-carboxy-4-[[4-[(19-carboxynonadecanoylamino)methyl]cyclohexanecarbonyl]amino]butanoyl]amino]ethoxy]ethoxy]acetyl]amino]ethoxy]ethoxy]acetyl]-QAAQEFVQWLLEGGPSSGAPPPS-NH2) [Compound No. 20] | 147 |
| H[Aib]HGTFTSDYSILLEKQAA[Aib]EFVQWLLEGGPSSGAPPPS-NH2 (not fully specified (residue 16); printed as H-Aib-HGTFTSDYSILLE-K[2-[2-[2-[[2-[2-[2-[[(4S)-4-carboxy-4-(19-carboxynonadecanoylamino)butanoyl]amino]ethoxy]ethoxy]acetyl]amino]ethoxy]ethoxy]acetyl]-QAA-Aib-EFVQWLLEGGPSSGAPPPS-NH2) [Compound No. 45] | 6.8 |
| Y[Aib]QGTFTSDYSIYLEKQAA[Aib]EFVQWLLEGGPSSGAPPPS-NH2 (not fully specified (residue 16); printed as Y-Aib-QGTFTSDYSIYLE-K[2-[2-[2-[[2-[2-[2-[[(4S)-4-carboxy-4-(19-carboxynonadecanoylamino)butanoyl]amino]ethoxy]ethoxy]acetyl]amino]ethoxy]ethoxy]acetyl]-QAA-Aib-EFVQWLLEGGPSSGAPPPS-NH2) [Compound No. 16] | 185 |

Now examine the next entry.
Ask | Give me measured hGcgR CRE Luc EC50 (pM), please, for this binder: H[Aib]HGTFTSDYSIYLEKQAAQEFVQWLLEGGPSSGAPPPS-NH2 (not fully specified (residue 16); printed as H-Aib-HGTFTSDYSIYLE-K[(2S)-2-amino-6-[[(2S)-2-amino-6-[[(4S)-4-carboxy-4-[[4-[(19-carboxynonadecanoylamino)methyl]cyclohexanecarbonyl]amino]butanoyl]amino]hexanoyl]amino]hexanoyl]-QAAQEFVQWLLEGGPSSGAPPPS-NH2) [Compound No. 23]
Reply | 18.3
